Reference for the values: patent US20260234276A1

Assign Optical Density to each entry below.
System Tested: T1, streptavidin (UniProt P22629 37-163, limits assumed)
T1 construct: control well without peptide
T1 sequence (P22629 37-163 limits assumed): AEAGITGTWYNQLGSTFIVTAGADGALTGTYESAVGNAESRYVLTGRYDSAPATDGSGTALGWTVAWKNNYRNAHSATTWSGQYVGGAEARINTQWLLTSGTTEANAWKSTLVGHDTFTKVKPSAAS
Experiment: ELISA, soluble Fab on streptavidin-coated control well without peptide
Respond numerically; units are OD450 and should not be typed.

Task item: GET /values?readout=Optical Density&item= 3-66 (Fab, V domains shown, soluble Fab from phage display library huFabL-4, Flag tag) VH: QVQLVESGGGVVQPGRSLRLSCAASGFPFRTYGMHWVRQAPGKGLEWVSSISSSSSYIYYADSVKGRFTISRDNAKNSLELQMNSLRAEDTAVYYCARTTRGAFDIWGKGTMVTVSS VL: LSSELTQDPAVSVALGQTVRITCQGDSLRSYYASWYQQKPGQAPLLVIYGRNNRPSGIPDRFSGSSSGNTASLTITGAQAEDEADYYCNSRDSSGVPFGTGTQLTVLS
Reply: 0.1

Task item: GET /values?readout=Optical Density&item= 3-56 (Fab, V domains shown, soluble Fab from phage display library huFabL-4, Flag tag) VH: EVQLVQSGGGVVQPGRSLRLSCAASGFTFSTYGMHWVRQAPGKGLEWVAVISYDGSKKYYADSVKGRFTISRDNSRNTVYLQMDSLRSEDTAVYYCAKDLSWPVRRLDVWGKGTMVTVSS VL: EIVLTQSPLSLPVTLGQPASISCRSSQSLVYSTGNTYLNWFHQRPGQSPRRLIYQVSNRDSGVPDRFSGSGSGTDFTLKISRVEADDVGVYYCMQGTHWPPTFGQGTKVEIKR
Reply: 0.08

Task item: GET /values?readout=Optical Density&item= 3-54 (Fab, V domains shown, soluble Fab from phage display library huFabL-4, Flag tag) VH: QVQLVQSGAEVKKPGASVKVSCKASGYTFSGYYIHWVRQAPGQGLEWMGWINPNSGGTNYAQNFQGRVTMTRDTSISTAYMELSRLRSDDTAMYYCARGNGAMDVWGRGTLVTVSS VL: DVVMTQSPLSLPVTSGKPASISCRSSQSLLHSNGYNYLDWYLQKPGQSPQLLIYLGSNRASGVPDRFSGSGSGTDFTLKISRVEAEDVGVYYCMQGTYWPRTFGQGTKVEIKR
Reply: 0.08

Task item: GET /values?readout=Optical Density&item= 3-74 (Fab, V domains shown, soluble Fab from phage display library huFabL-4, Flag tag) VH: EVQLVQSGGGVVQPGRSLRLSCAASGFTFSNYGMHWVRQAPGKGLEWVAIISDDGSNRYYGDSVKGRFTISRDNSKNTLYLQMNSLRAEDTAVYYCAKSLTTSYYYGMDVWGKGTLVTVSS VL: QSALTQPPSASGSPGQSVTISCTGTSSDIGGYIYVSWYQQHPGKAPKLIIYEVHKRPSGVSNRFSASKSANTASLTISGLQAEDEADYYCSSYSSSRTVLFGGGTKLTVLG
Reply: 0.09

Task item: GET /values?readout=Optical Density&item= 3-57 (Fab, V domains shown, soluble Fab from phage display library huFabL-4, Flag tag) VH: QMQLVQSGAEVKKPGASVKVSCKASGYTFTSYYMHWVRQAPGQGLEWMGIINPSGGSTSYAQKFQGRVTMTRDTSTSTVYMELSSLRSEDTAVYYCARAGVRGVFGMDVWGKGTLVTVSS VL: QSALTQPASVSGSPGQSITISCTGTSSDLGAYNYVSWYQQHPGKAPRLMIYDVSKRPSGVPDRFSGSKSDNTASLTISGLQAEDEADYYCSSYTSSSTLVFGGGTKVTVLS
Reply: 0.1
